experiment: method code SF, from DOI: 10.1002/qsar.19830020303; conditions: pH 7.4

{"STRUCTURE SMILES": "Oc1cnc2ccccc2c1", "logD": 2.08}

###

The reader will find reported logP values listed item by item below.

{"STRUCTURE SMILES": "CCCCOc1cccnn1", "logP": 1.8}
{"STRUCTURE SMILES": "Clc1ccc2cncnc2c1", "logP": 1.74}
{"STRUCTURE SMILES": "N#Cc1cnc2ccccc2c1", "logP": 1.57}
{"STRUCTURE SMILES": "Brc1cc2ccccc2nn1", "logP": 1.72}
{"STRUCTURE SMILES": "O=S(=O)(c1ccccc1)c1cccc2cccnc12", "logP": 2.33}
{"STRUCTURE SMILES": "CC(=O)c1cnc2ccccc2c1", "logP": 1.76}
{"STRUCTURE SMILES": "Nc1cc2ccccc2nn1", "logP": 1}
{"STRUCTURE SMILES": "c1ccc(Sc2cccnc2)cc1", "logP": 3.15}
{"STRUCTURE SMILES": "O=Cc1ccc2ccccc2n1", "logP": 2.14}
{"STRUCTURE SMILES": "Cc1cccc2c(N)cnnc12", "logP": 1.57}
{"STRUCTURE SMILES": "Nc1ccnc2c([N+](=O)[O-])cccc12", "logP": 1.31}
{"STRUCTURE SMILES": "CSc1ncc2ccccc2n1", "logP": 2.5}
{"STRUCTURE SMILES": "CCOC(=O)c1cc2ccc(CC)cc2nn1", "logP": 2.31}
{"STRUCTURE SMILES": "c1ccc(Oc2ccccn2)cc1", "logP": 2.45}
{"STRUCTURE SMILES": "Nc1nc(-c2ccccc2)c2ccccc2n1", "logP": 2.95}
{"STRUCTURE SMILES": "O=C(c1ccccc1)c1ccccn1", "logP": 1.96}
{"STRUCTURE SMILES": "CC(C)(C)c1ccccn1", "logP": 2.4}
{"STRUCTURE SMILES": "c1ccc(-c2ncncn2)cc1", "logP": 1.93}
{"STRUCTURE SMILES": "CN(C)c1ccccn1", "logP": 1.43}
{"STRUCTURE SMILES": "Cc1nc(-c2ccccc2)c2ccccc2n1", "logP": 3.1}
{"STRUCTURE SMILES": "Nc1nncc2ccccc12", "logP": 0.82}
{"STRUCTURE SMILES": "COc1ncnc2ccccc12", "logP": 1.97}
{"STRUCTURE SMILES": "COc1ccc(Cl)nn1", "logP": 0.89}
{"STRUCTURE SMILES": "COc1nnc(OC)c2ccccc12", "logP": 2.22}
{"STRUCTURE SMILES": "Cc1cccnc1", "logP": 1.19}
{"STRUCTURE SMILES": "COc1cnnc2ccccc12", "logP": 1.41}
{"STRUCTURE SMILES": "Ic1ccc2ccccc2n1", "logP": 3.04}
{"STRUCTURE SMILES": "CCCOc1cncc(C)n1", "logP": 2.29}
{"STRUCTURE SMILES": "COc1cc(C)nc2ccccc12", "logP": 2.81}
{"STRUCTURE SMILES": "CSc1nc(C)cc(C)n1", "logP": 1.86}
{"STRUCTURE SMILES": "c1ccc2c(N3CCCCC3)ncnc2c1", "logP": 2.92}
{"STRUCTURE SMILES": "CN(C)C(=O)c1cnc2ccccc2c1", "logP": 0.99}
{"STRUCTURE SMILES": "CN(C)c1nnc(-c2ccccc2)c2ccccc12", "logP": 3.22}
{"STRUCTURE SMILES": "Cc1cnnc2ccc(Cl)cc12", "logP": 1.96}
{"STRUCTURE SMILES": "N#Cc1ccc2ccccc2n1", "logP": 1.6}
